target: APJ receptor (Homo sapiens, UniProt P35414); assay: FLIPR calcium assay, EC50 of apelin peptides in HEK293-PSCi4qi4-APJ cells; assay type: cell-based; parameters: expressed in transfected cells; host or cells: HEK293-PSCi4qi4 (HEK 293 stably expressing Gαi4qi4); conditions: first of two independent measurements, intracellular calcium
Sequence (P35414 whole entry): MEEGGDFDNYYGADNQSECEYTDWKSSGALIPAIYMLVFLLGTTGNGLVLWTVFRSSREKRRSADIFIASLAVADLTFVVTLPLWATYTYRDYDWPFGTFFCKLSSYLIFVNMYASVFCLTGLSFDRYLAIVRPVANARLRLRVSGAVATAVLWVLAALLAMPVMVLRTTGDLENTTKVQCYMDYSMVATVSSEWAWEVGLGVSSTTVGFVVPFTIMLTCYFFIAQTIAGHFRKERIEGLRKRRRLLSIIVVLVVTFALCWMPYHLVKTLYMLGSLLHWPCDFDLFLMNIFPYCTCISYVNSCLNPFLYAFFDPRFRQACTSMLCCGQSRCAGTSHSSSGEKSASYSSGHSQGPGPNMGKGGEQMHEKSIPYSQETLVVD
pEC50: −log10 of the molar value. Ends that are not written are not given here.
readout_kind: pEC50

>>> measured_result("LVQPRGSRNGPGPWQGGRRKFRRQRPRLSHKGPMPF [Apelin-36]")
7.29

---

biological target: APJ receptor (Homo sapiens, UniProt P35414); assay: FLIPR calcium assay, EC50 of apelin peptides in HEK293-PSCi4qi4-APJ cells; type: cell-based; design: expressed in transfected cells; host or cells: HEK293-PSCi4qi4 (HEK 293 stably expressing Gαi4qi4); settings: second of two independent measurements, intracellular calcium
Ends that are not written are not given here.
readout_kind: EC50

>>> measured_result("LVQPRGSRNGPGPWQGGRRKFRRQRPRLSHKGPMPF [Apelin-36]")
"27 nM"
